Cited source: the Immune Epitope Database (IEDB)

tested.system: HLA-A*01:01
method.notes: IEDB peptide-MHC binding, purified MHC/competitive/radioactivity; filed as Kd, often an IC50 or EC50 that approximates it; bounds were set here for any values at or beyond the usual limits of such assays
experimental.context: source organism: Triticum aestivum
endpoint.name: Kd

// lookup Kd | system=HLA-A*01:01 | key= SFQQPQQQY
≥ 68.9 µM

----------
tested.system: HLA-B*51:01
method.notes: IEDB peptide-MHC binding, purified MHC/competitive/radioactivity; filed as Kd, often an IC50 or EC50 that approximates it; bounds were set here for any values at or beyond the usual limits of such assays
experimental.context: source organism: Mammarenavirus juninense
endpoint.name: pKd
Reminder that pKd is minus the log10 of a molar concentration.

// lookup pKd for HPDMDSLMI
5.54

----------
tested.system: HLA-A*11:01
method.notes: IEDB peptide-MHC binding, purified MHC/direct/fluorescence; filed as Kd, often an IC50 or EC50 that approximates it; bounds were set here for any values at or beyond the usual limits of such assays
experimental.context: source organism: Giardia lamblia ATCC 50803
endpoint.name: Kd (nM)
Write the number in nM without appending the unit.

sequence.chain | units.of.measure | measured.result
TTIEDILPK | nM | 9.2

Then this sequence:
So what's the measured Kd for this one? TVDSLSPLK
12.3

----------
tested.system: HLA-A*11:01
method.notes: IEDB peptide-MHC binding, purified MHC/competitive/radioactivity; filed as Kd, often an IC50 or EC50 that approximates it; bounds were set here for any values at or beyond the usual limits of such assays
experimental.context: source organism: Triticum aestivum
endpoint.name: pKd
// pKd here means minus log10 of the molar concentration (mol/L)

Request the reported pKd associated with QQHNIVHGK
6.04

----------
tested.system: HLA-A*11:01
method.notes: IEDB peptide-MHC binding, purified MHC/direct/fluorescence; filed as Kd, often an IC50 or EC50 that approximates it; bounds were set here for any values at or beyond the usual limits of such assays
experimental.context: source organism: Corynebacterium diphtheriae
endpoint.name: Kd

# input sequence: VERRLVKVL ; wanted: its Kd
≥ 20 µM

----------
tested.system: HLA-B*58:01
method.notes: IEDB peptide-MHC binding, purified MHC/direct/fluorescence; filed as Kd, often an IC50 or EC50 that approximates it; bounds were set here for any values at or beyond the usual limits of such assays
experimental.context: source organism: Influenza A virus (A/swine/Korea/S190/2004(H9N2))
endpoint.name: Kd

What measured Kd is associated with IPKRNRSIL on HLA-B*58:01?
≥ 20 µM

----------
tested.system: HLA-A*80:01
method.notes: IEDB peptide-MHC binding, purified MHC/direct/fluorescence; filed as Kd, often an IC50 or EC50 that approximates it; bounds were set here for any values at or beyond the usual limits of such assays
experimental.context: source organism: Mus musculus
pKd: −log10 of the molar value.
endpoint.name: pKd

Quick one: pKd for FFGETSHNY ?
≤ 4.70

----------
tested.system: HLA-B*27:05
method.notes: IEDB peptide-MHC binding, purified MHC/direct/fluorescence; filed as Kd, often an IC50 or EC50 that approximates it; bounds were set here for any values at or beyond the usual limits of such assays
experimental.context: source organism: Escherichia coli O157:H7
pKd: −log10 of the molar value.
endpoint.name: pKd

sequence.chain | pKd
ETWVETWAF | ≤ 4.70

Value lookup for pKd; key = LLKLWIDKV
≤ 4.70

I'd like to know its pKd. The sequence in question is ITAGYNRYY
≤ 4.70

----------
tested.system: HLA-A*26:01
method.notes: IEDB peptide-MHC binding, purified MHC/direct/fluorescence; filed as Kd, often an IC50 or EC50 that approximates it; bounds were set here for any values at or beyond the usual limits of such assays
experimental.context: source organism: Haemophilus influenzae
endpoint.name: Kd

Field request: Kd | item: IMDEPTSSL
≥ 20 µM

----------
tested.system: HLA-B*18:01
method.notes: IEDB peptide-MHC binding, purified MHC/direct/fluorescence; filed as Kd, often an IC50 or EC50 that approximates it; bounds were set here for any values at or beyond the usual limits of such assays
experimental.context: source organism: Influenza A virus (A/swine/Korea/S190/2004(H9N2))
pKd: −log10 of the molar value.
endpoint.name: pKd

Which pKd is reported for this sequence? IPKRNRSIL
≤ 4.70

----------
tested.system: HLA-A*03:01
method.notes: IEDB peptide-MHC binding, purified MHC/direct/fluorescence; filed as Kd, often an IC50 or EC50 that approximates it; bounds were set here for any values at or beyond the usual limits of such assays
experimental.context: source organism: Corynebacterium diphtheriae
endpoint.name: Kd

Quick one: Kd for VERRLVKVL ?
≥ 20 µM

----------
tested.system: HLA-A*01:01
method.notes: IEDB peptide-MHC binding, purified MHC/direct/fluorescence; filed as Kd, often an IC50 or EC50 that approximates it; bounds were set here for any values at or beyond the usual limits of such assays
experimental.context: source organism: West Nile virus
endpoint.name: Kd

Fill in the blank: the reported Kd of LYAVTTAVL is ____.
≥ 20 µM

----------
tested.system: HLA-B*15:01
method.notes: IEDB peptide-MHC binding, purified MHC/direct/fluorescence; filed as Kd, often an IC50 or EC50 that approximates it; bounds were set here for any values at or beyond the usual limits of such assays
experimental.context: source organism: Yersinia pestis
endpoint.name: Kd (nM)
Kindly provide the numeric value in nM only, without the unit symbol.

Reported Kd for YGLGSTPLY : what is it?
332

----------
Quick reference for pKd among some sequences
tested.system: HLA-B*18:01
method.notes: IEDB peptide-MHC binding, purified MHC/competitive/radioactivity; filed as Kd, often an IC50 or EC50 that approximates it; bounds were set here for any values at or beyond the usual limits of such assays
experimental.context: source organism: Mammarenavirus lassaense
Conceptually, pKd converts a concentration in mol/L into minus its log10.

sequence.chain | tested.system | pKd
EELITDTEFL | HLA-B*18:01 | 4.96

// below: pKd requested for another sequence
Please give the measured pKd for this sequence: AEFKSRFFVW
6.57

----------
tested.system: HLA-A*01:01
method.notes: IEDB peptide-MHC binding, purified MHC/competitive/fluorescence; filed as Kd, often an IC50 or EC50 that approximates it; bounds were set here for any values at or beyond the usual limits of such assays
experimental.context: source organism: Rattus norvegicus
endpoint.name: Kd

State the recorded Kd for this entry: FFGETSHNY
≥ 20 µM

----------
tested.system: HLA-B*39:01
method.notes: IEDB peptide-MHC binding, purified MHC/competitive/fluorescence; filed as Kd, often an IC50 or EC50 that approximates it; bounds were set here for any values at or beyond the usual limits of such assays
experimental.context: source organism: Orthohantavirus andesense
endpoint.name: Kd

Consider the sequence VWKQLFPEL and give its measured Kd.
≥ 20 µM

----------
tested.system: HLA-A*30:02
method.notes: IEDB peptide-MHC binding, purified MHC/competitive/radioactivity; filed as Kd, often an IC50 or EC50 that approximates it; bounds were set here for any values at or beyond the usual limits of such assays
experimental.context: source organism: Mammarenavirus whitewaterense
endpoint.name: pKd
Hey, just a heads up that pKd is the negative log base 10 of the concentration in molar.

I'd like to know its pKd. The sequence in question is RCWLTKNGSY
7.24

----------
tested.system: HLA-A*23:01
method.notes: IEDB peptide-MHC binding, purified MHC/direct/fluorescence; filed as Kd, often an IC50 or EC50 that approximates it; bounds were set here for any values at or beyond the usual limits of such assays
experimental.context: source organism: Zaire ebolavirus
Listed next: entries and their corresponding Kd.

sequence.chain | tested.system | Kd
GRYNLISPK | HLA-A*23:01 | ≥ 20 µM

Below: the item to evaluate.
# Kd lookup, item SLLHESTLK
≥ 20 µM

----------
tested.system: HLA-A*24:02
method.notes: IEDB peptide-MHC binding, purified MHC/competitive/fluorescence; bounds were set here for any values at or beyond the usual limits of such assays
experimental.context: source organism: Variola virus
endpoint.name: pIC50
Just so you know, pIC50 here is -log10 of the concentration in molar units; reply with that number alone.

sequence.chain | tested.system | pIC50
DFHERPVIL | HLA-A*24:02 | 7.50

Entry AQREIFSAW : reported pIC50 = ?
7.41

Form field: reported pIC50 of ERPVILSLP
4.73

----------
tested.system: HLA-A*30:01
method.notes: IEDB peptide-MHC binding, purified MHC/competitive/radioactivity; filed as Kd, often an IC50 or EC50 that approximates it; bounds were set here for any values at or beyond the usual limits of such assays
experimental.context: source organism: Mammarenavirus guanaritoense
endpoint.name: pKd
Entry type: numeric. Quantity: pKd, the -log10 of concentration in molar units.

Find the recorded pKd belonging to CSKILDLCY and report it.
4.83

----------
tested.system: HLA-B*58:01
method.notes: IEDB peptide-MHC binding, purified MHC/direct/fluorescence; filed as Kd, often an IC50 or EC50 that approximates it; bounds were set here for any values at or beyond the usual limits of such assays
experimental.context: source organism: Orthohantavirus andesense
endpoint.name: Kd

# lookup: Kd of YLQAKSQVL
≥ 20 µM
